Protein target, amino acids: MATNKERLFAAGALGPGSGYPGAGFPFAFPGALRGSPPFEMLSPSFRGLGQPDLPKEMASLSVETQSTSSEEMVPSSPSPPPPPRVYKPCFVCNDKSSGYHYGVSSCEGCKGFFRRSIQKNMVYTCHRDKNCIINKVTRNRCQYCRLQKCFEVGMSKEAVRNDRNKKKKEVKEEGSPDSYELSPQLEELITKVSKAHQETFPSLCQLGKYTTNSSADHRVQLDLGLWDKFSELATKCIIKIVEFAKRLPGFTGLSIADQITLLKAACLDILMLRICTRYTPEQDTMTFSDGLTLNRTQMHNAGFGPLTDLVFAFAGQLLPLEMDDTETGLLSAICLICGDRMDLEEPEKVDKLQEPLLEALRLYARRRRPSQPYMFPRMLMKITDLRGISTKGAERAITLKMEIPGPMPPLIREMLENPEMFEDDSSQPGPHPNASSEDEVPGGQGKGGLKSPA
EXPERIMENTAL READOUT: pKd
Numbers only, as −log10 of the molar value.

Ask: Sample `C=C(c1ccc(C(=O)O)cn1)c1cc2c(cc1C)C(C)(C)CCC2(C)C` — what was its pKd?
Result: 5.22

====

TGT: RXRγ (Mus musculus, UniProt P28705)
Construct: expressed in transfected cells; host or cells: CV-1 (monkey kidney)
Sequence (P28705 1-463): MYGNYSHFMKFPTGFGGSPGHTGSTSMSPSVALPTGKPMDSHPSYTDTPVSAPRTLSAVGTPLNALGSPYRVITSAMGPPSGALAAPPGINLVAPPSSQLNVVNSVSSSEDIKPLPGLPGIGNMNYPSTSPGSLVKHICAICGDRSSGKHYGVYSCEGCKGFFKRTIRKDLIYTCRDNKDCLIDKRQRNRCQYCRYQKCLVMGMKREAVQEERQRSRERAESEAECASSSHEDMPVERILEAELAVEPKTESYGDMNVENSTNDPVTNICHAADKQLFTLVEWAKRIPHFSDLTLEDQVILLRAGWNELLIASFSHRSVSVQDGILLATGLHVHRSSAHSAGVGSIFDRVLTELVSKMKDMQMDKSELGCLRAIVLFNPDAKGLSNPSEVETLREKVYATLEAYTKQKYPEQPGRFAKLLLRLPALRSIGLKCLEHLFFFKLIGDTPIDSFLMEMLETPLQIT
TEST PROTOCOL: Co-transfection (cis-trans) assay in CV-1 cells, RXRγ
Type: cell-based
CONDITION PARAMETERS: CV-1; RXRγ; maximal response relative to all-trans-retinoic acid at 10^−5 M; read-out: Efficacy
Source text: The co-transfection assay provides a mechanism to evaluate the ability of a compound to modulate the transcription response initiated by an intracellular receptor. […] Berger, et al., J. Steroid Biochem Molec. Briefly, the co-transfection assay involves the introduction of two plasmids by transient transfection into a retinoid receptor-negative mammalian cell background. The first plasmid contains a retinoid receptor cDNA and directs constitutive expression of the encoded receptor. […]
EXPERIMENTAL READOUT: Emax at 10 µM (%)
Numbers only, in %.

Look at each compound and report its Emax at 10 µM.
1. CC1=C(C=CC2CCCCC2/C=C/C(C)=C/C(=O)O)C(C)(C)CCC1 (centres unmarked) [Compound 100]
2. CC(/C=C/C1(c2cc3c(cc2C)C(C)(C)CCC3(C)C)CC1)=C\C(=O)O [Compound 104]
3. C/C(=C/C=C/C(C)=C/C(=O)O)c1cc2c(cc1C)C(C)(C)CCC2(C)C [Compound 128]
4. CC1=C(/C=C/C2(C/C=C/C(C)=C/C(=O)O)CC2)C(C)(C)CCC1 [Compound 110]
5. CC1=C(/C=C/C(=C\C=C\C(C)=C\C(=O)O)C(C)C)C(C)(C)CCC1 [Compound 75]
6. CC1=C(/C=C/C(=C\C=C\C(C)=C\C(=O)O)C(C)(C)C)C(C)(C)CCC1 [Compound 77]

Result:
72
85
115
87
106
71

====

Give measured Emax at 10 µM for each item. Keep answers brief.
TGT: RARα (Homo sapiens)
Sequence (P10276 whole entry): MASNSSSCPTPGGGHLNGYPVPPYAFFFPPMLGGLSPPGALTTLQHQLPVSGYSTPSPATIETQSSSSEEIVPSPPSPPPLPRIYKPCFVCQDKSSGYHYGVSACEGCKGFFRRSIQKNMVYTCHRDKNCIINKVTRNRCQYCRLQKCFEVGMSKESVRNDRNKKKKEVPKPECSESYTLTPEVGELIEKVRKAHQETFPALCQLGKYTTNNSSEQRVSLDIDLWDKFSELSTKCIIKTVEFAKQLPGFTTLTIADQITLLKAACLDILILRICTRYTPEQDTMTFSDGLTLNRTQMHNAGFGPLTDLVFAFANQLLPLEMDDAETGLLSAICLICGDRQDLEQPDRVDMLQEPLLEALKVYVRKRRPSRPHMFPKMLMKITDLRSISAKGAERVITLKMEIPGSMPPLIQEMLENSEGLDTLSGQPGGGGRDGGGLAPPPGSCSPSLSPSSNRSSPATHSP
TEST PROTOCOL: Co-transfection (cis-trans) assay in CV-1 cells, RARα
Assay type: cell-based
Parameters: expressed in transfected cells; host or cells: CV-1 (monkey kidney)
CONDITION PARAMETERS: CV-1, maximal response relative to all-trans-retinoic acid at 10^−5 M, read-out: Efficacy

>>> result("CC1=C(/C=C/C(=C\\C=C\\C(C)=C\\C(=O)O)C(C)C)C(C)(C)CCC1 [Compound 75]")
"< 2%"

Could you tell me Emax at 10 µM for each of these compounds? They are listed below.
1. C=C(c1ccc(C(=O)O)cn1)c1cc2c(cc1C)C(C)(C)CCC2(C)C [TPNEP (58)]
2. CCCC(=C/C=C/C(C)=C/C(=O)O)/C=C/C1=C(C)CCCC1(C)C [Compound 74]
3. CC1=C(/C=C/C(=C\C=C\C(C)=C\C(=O)O)C(C)(C)C)C(C)(C)CCC1 [Compound 77]
4. C=C(c1ccc(C(=O)O)cc1)c1cc2c(cc1Br)C(C)(C)CCC2(C)C [3-Bromo-TTNEB]

Result:
< 2%
< 2%
< 2%
3%

====

TGT: RARβ (Homo sapiens, UniProt P10826)
Sequence (P10826 whole entry): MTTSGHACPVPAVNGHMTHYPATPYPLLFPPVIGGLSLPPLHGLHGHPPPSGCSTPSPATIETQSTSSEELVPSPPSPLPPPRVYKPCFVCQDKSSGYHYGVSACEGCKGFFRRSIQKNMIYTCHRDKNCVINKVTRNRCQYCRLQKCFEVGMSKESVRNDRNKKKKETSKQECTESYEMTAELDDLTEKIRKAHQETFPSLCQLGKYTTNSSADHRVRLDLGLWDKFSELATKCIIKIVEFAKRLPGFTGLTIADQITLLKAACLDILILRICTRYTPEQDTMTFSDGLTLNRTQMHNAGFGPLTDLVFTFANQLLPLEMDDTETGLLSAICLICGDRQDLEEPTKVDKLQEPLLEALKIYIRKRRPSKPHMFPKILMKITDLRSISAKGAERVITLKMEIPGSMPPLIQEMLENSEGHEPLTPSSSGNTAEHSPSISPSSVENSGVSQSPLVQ
EXPERIMENTAL READOUT: Kd
The answer should read as a number with its unit following.

Ask: Notebook: pull reported Kd for RARβ (Homo sapiens, UniProt P10826), entry `C=C(c1ccc(C(=O)O)cn1)c1cc2c(cc1C)C(C)(C)CCC2(C)C`
Result: 4.9 µM

====

TGT: UniProt P13631
Sequence (P13631 1-454): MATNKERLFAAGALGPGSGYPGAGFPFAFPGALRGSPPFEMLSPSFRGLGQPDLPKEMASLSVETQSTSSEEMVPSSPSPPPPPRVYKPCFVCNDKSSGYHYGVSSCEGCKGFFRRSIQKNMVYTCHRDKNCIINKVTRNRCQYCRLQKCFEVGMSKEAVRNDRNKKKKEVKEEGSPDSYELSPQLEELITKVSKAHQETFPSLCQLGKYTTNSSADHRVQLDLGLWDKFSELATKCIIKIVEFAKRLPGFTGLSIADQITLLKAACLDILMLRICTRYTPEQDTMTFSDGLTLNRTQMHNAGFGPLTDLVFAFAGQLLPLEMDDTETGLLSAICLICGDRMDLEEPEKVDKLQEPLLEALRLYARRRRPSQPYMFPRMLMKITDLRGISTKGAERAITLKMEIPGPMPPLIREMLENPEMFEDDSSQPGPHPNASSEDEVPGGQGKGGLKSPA
TEST PROTOCOL: Co-transfection (cis-trans) assay in CV-1 cells, RARγ
CONDITION PARAMETERS: CV-1 cells, luciferase reporter, 36 h, read-out: Potency
Hi there, I'd appreciate the recorded EC50 for every entry that follows.

Here are 3 compounds together with their reported answers.
>>> result("CC1=C(/C=C/C2(C/C=C/C(C)=C/C(=O)O)CC2)C(C)(C)CCC1")
"1770 nM"
>>> result("Cc1cc2c(cc1C(=O)c1ccc(C(=O)Nc3ccc(O)cc3)cc1)C(C)(C)CCC2(C)C")
"> 10000 nM"
>>> result("CCCC(=C/C=C/C(C)=C/C(=O)O)/C=C/C1=C(C)CCCC1(C)C")
"37 nM"

Ask: Recorded EC50 for CC1=C(C=CC2CCCCC2/C=C/C(C)=C/C(=O)O)C(C)(C)CCC1 (stereo not shown) , please?
Result: > 10000 nM

====

TGT: RXRα (Homo sapiens)
Construct: The first plasmid contains a retinoid receptor cDNA and directs constitutive expression of the encoded receptor; expressed in transfected cells; host or cells: CV-1 (monkey kidney)
Sequence (P19793 1-462): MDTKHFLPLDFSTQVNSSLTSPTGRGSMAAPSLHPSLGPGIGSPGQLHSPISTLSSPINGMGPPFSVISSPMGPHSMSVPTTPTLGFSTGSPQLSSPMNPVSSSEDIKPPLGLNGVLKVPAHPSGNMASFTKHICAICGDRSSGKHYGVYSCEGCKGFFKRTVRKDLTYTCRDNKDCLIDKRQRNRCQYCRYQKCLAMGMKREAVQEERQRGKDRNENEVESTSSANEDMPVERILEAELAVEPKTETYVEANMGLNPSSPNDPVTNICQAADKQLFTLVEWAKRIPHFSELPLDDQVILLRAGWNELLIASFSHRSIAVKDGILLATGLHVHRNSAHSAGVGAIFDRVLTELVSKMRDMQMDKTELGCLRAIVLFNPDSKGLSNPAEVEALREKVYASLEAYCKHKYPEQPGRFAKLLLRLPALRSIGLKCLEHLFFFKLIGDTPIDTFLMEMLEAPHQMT
TEST PROTOCOL: Co-transfection (cis-trans) assay in CV-1 cells, RXRα
Type: cell-based
CONDITION PARAMETERS: CV-1; RXRα; maximal response relative to all-trans-retinoic acid at 10^−5 M; read-out: Efficacy
EXPERIMENTAL READOUT: Emax at 10 µM (%)
One number for each entry, in %.

Past entries and their recorded results:
>>> result("CC1=C(/C=C/C(=C\\C=C\\C(C)=C\\C(=O)O)C(C)C)C(C)(C)CCC1")
100
>>> result("CC1=C(/C=C/C(=C\\C=C\\C(C)=C\\C(=O)O)C(C)(C)C)C(C)(C)CCC1")
75
>>> result("CC1=C(/C=C/C2(C/C=C/C(C)=C/C(=O)O)CC2)C(C)(C)CCC1")
79

Would you mind listing Emax at 10 µM for each of the following compounds?
1. CC(/C=C/C=C(\c1ccc2c(c1)C(C)(C)CCC2(C)C)C(C)C)=C\C(=O)O
2. Cc1cc2c(cc1C(=O)c1ccc(C(=O)Nc3ccc(O)cc3)cc1)C(C)(C)CCC2(C)C
3. C/C(=C/C=C/C(C)=C/C(=O)O)c1cc2c(cc1C)C(C)(C)CCC2(C)C
4. CC1=C(C=CC2CCCCC2/C=C/C(C)=C/C(=O)O)C(C)(C)CCC1 (stereo not shown)
5. CC(/C=C/C1(c2cc3c(cc2C)C(C)(C)CCC3(C)C)CC1)=C\C(=O)O

Result:
90
113
108
63
75

# map each compound to its Emax at 10 µM
1. CCCC(=C/C=C/C(C)=C/C(=O)O)/C=C/C1=C(C)CCCC1(C)C
2. C=C(c1ccc(C(=O)Nc2ccc(O)cc2)cc1)c1cc2c(cc1C)C(C)(C)CCC2(C)C

Result:
1. 78
2. 125

# credit: patent US6610883B1
